- tested-system: D(2) dopamine receptor (Homo sapiens)
- Sequence (P14416 whole entry): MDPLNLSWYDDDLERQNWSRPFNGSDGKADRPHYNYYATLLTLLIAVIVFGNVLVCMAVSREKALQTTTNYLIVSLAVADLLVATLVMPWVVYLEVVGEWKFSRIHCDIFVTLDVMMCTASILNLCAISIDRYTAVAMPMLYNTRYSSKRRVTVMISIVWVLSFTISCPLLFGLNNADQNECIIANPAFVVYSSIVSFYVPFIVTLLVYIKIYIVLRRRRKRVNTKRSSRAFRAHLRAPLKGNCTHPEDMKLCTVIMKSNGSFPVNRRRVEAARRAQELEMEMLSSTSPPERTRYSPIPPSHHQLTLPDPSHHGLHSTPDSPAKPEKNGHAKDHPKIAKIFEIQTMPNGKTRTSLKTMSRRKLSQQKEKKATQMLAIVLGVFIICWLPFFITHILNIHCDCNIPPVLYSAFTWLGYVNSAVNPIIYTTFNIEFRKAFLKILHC
- assay-procedure: Ability to displace [125I]sulpiride from human Dopamine receptor D2, expressed in CHO cells
Quick reference for Ki among some molecules
measurement-name: Ki (nM)

molecule	tested-system	measured-value
COc1ccc(S(=O)(=O)Cc2ccccc2)cc1-c1ccc(CN2CCCCCC2c2ccccc2)[nH]1 (centres undefined)	D(2) dopamine receptor (Homo sapiens)	126
COc1ccc(S(=O)(=O)N2CCc3ccccc3C2)cc1-c1ccc(CN2CCCCCC2c2ccccc2)[nH]1 (centres undefined)	D(2) dopamine receptor (Homo sapiens)	200
COc1ccc(S(=O)(=O)C(C)C)cc1-c1ccc(CN2CCCCCC2c2ccccc2)[nH]1 (centres undefined)	D(2) dopamine receptor (Homo sapiens)	200
COc1ccc(S(N)(=O)=O)cc1-c1ccc(CN2CCCCCC2c2ccccc2)[nH]1 (centres undefined)	D(2) dopamine receptor (Homo sapiens)	398
